# credit: paper PMC4102931

- TEST: Steady-state pharmacokinetics of cediranib given with chemotherapy
- Type: in vivo, human
- CONDITION_SUMMARY: human, plasma, oral, 20 mg, tmax, Arm 3A (with irinotecan), cediranib 20 mg, n=5; median (range)
READOUT_LABEL: Tmax
Put down the number, then write its unit next to it.

Need Tmax of COc1cc2c(Oc3ccc4[nH]c(C)cc4c3F)ncnc2cc1OCCCN1CCCC1 [cediranib, Cediranib] , thanks.
2.1 h

###

- TEST: Steady-state pharmacokinetics of cediranib given with chemotherapy
- Assay type: in vivo, human
- CONDITION_SUMMARY: human, plasma, oral, 30 mg, AUCss, Arm 2 (with docetaxel), cediranib 30 mg, n=8; geometric mean (CV%)
READOUT_LABEL: AUC (ng·h/mL)
Enter your answer as a number in ng·h/mL; do not include the unit.

Need AUC of COc1cc2c(Oc3ccc4[nH]c(C)cc4c3F)ncnc2cc1OCCCN1CCCC1 , thanks.
1100
